test system: SW684; test: relative viability vs DMSO control (72 h) (fraction); higher = more viable cells; conditions: 0.3704 µM
Overview of recorded relative viability for various molecules
resultType: relative viability

Cc1nc(Nc2ncc(C(=O)Nc3c(C)cccc3Cl)s2)cc(N2CCN(CCO)CC2)n1 [Dasatinib] = 0.625
C=CC(=O)Nc1cc(Nc2nccc(-c3cn(C)c4ccccc34)n2)c(OC)cc1N(C)CCN(C)C [Osimertinib] = 1.12
Cc1cn(-c2cc(NC(=O)c3ccc(C)c(Nc4nccc(-c5cccnc5)n4)c3)cc(C(F)(F)F)c2)cn1 [Nilotinib] = 1.32
Cc1c(F)cc(C(=O)NC2CC2)cc1-c1ccc(C(=O)NCC(C)(C)C)cn1 [Losmapimod] = 1.25
Cc1cn(-c2cc(NC(=O)c3ccc(C)c(Nc4nccc(-c5cnccn5)n4)c3)cc(C(F)(F)F)c2)cn1 [Radotinib] = 1.33
CNC(=O)c1cc(Oc2ccc(NC(=O)Nc3ccc(Cl)c(C(F)(F)F)c3)cc2)ccn1 [Sorafenib] = 1.27
COc1cc2ncnc(Nc3ccc(F)c(Cl)c3)c2cc1NC(=O)/C=C/CN1CCCCC1 [Dacomitinib] = 1.08
CO[C@@H]1[C@H](N(C)C(=O)c2ccccc2)C[C@H]2O[C@]1(C)n1c3ccccc3c3c4c(c5c6ccccc6n2c5c31)C(=O)NC4 [Midostaurin] = 0.863
COc1cc(Nc2c(C#N)cnc3cc(OCCCN4CCN(C)CC4)c(OC)cc23)c(Cl)cc1Cl [Bosutinib] = 1.31
C#Cc1cccc(Nc2ncnc3cc(OCCOC)c(OCCOC)cc23)c1 [Erlotinib] = 1.19
CCCS(=O)(=O)N[C@H]1C[C@@H](N(C)c2ncnc3[nH]ccc23)C1 [Abrocitinib] = 1.16
CO[C@H]1C[C@@H]2CC[C@@H](C)[C@@](O)(O2)C(=O)C(=O)N2CCCC[C@H]2C(=O)O[C@H]([C@H](C)C[C@@H]2CC[C@@H](O)[C@H](OC)C2)CC(=O)[C@H](C)/C=C(\C)[C@@H](O)[C@@H](OC)C(=O)[C@H](C)C[C@H](C)/C=C/C=C/C=C/1C [Rapamycin] = 0.718
CC[C@@H]1C(=O)N(C)c2cnc(Nc3ccc(C(=O)N[C@H]4CC[C@H](N5CCN(CC6CC6)CC5)CC4)cc3OC)nc2N1C(C)C [Volasertib] = 0.731

###

tested on: SK-ES-1; test: relative viability vs DMSO control (72 h) (fraction); higher = more viable cells; details: 0.00051 µM
resultType: relative viability

N#Cc1ccnc(N2C(=O)CC[C@H]2C(=O)N(c2cncc(F)c2)[C@H](C(=O)NC2CC(F)(F)C2)c2ccccc2Cl)c1 = 0.962
CN(C)C[C@@H]1CCn2cc(c3ccccc32)C2=C(C(=O)NC2=O)c2cn(c3ccccc23)CCO1 = 1.06
C[C@@H](Oc1cc(-c2cnn(C3CCNCC3)c2)cnc1N)c1c(Cl)ccc(F)c1Cl = 1.01
CNC(=O)c1cc(Oc2ccc(NC(=O)Nc3ccc(Cl)c(C(F)(F)F)c3)cc2)ccn1 = 1.01
Cc1c(F)cc(C(=O)NC2CC2)cc1-c1ccc(C(=O)NCC(C)(C)C)cn1 = 1.12
C=CC(=O)Nc1cc(Nc2nccc(-c3cn(C)c4ccccc34)n2)c(OC)cc1N(C)CCN(C)C = 1.05
COc1cc2c(Oc3ccc4[nH]c(C)cc4c3F)ccnc2cc1OCC1(N)CC1 = 1.05
CN1CCN(CCOc2cc(OC3CCOCC3)c3c(Nc4c(Cl)ccc5c4OCO5)ncnc3c2)CC1 = 1.05
